Where do the numbers come from? From PubChem BioAssay.

experiment: doxorubicin toxicity protection in MRP-1 cells – H69AR cells, CellTiter-Glo, duplicate, MRP-1 activator project, pilot screen (AID 807); settings: H69AR viability with doxorubicin, CellTiter-Glo luminescence; at 10 µM; hits give high values;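 further: compound pretreatment 18-22 h then 72 h combined with doxorubicin; 0% = doxorubicin alone and 100% = vehicle without doxorubicin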
So I've got a bunch of molecules here, and I need their viability increase values.
Numbers only, in %.

// solved cases for viability increase follow
input: Can you share its viability increase? I mean this molecule: C=C(C)Cn1c(-c2ccccc2)nc2ccccc21
output: -1.92

input: Can you share its viability increase? I mean this molecule: FC(F)(F)c1cc(-c2ccco2)nc(NCc2ccco2)n1
output: -6.31

input: Can you share its viability increase? I mean this molecule: CCOc1ccc(-c2nnc(-c3ccco3)o2)cc1
output: 1.72

input: Can you share its viability increase? I mean this molecule: N#Cc1nc(-c2ccc(F)cc2)oc1NCc1ccccc1
output: 0.89

input: Can you share its viability increase? I mean this molecule: CCOC(=O)Cc1ccc(NS(=O)(=O)c2ccc(SC)cc2)cc1
output: -4.85

input: Can you share its viability increase? I mean this molecule: CC1Cc2nc(SCC(=O)Nc3nccs3)n(C)c(=O)c2S1 (stereo unspecified)
output: -2.52

List viability increase for every entry below, keeping the order given.
1. Cc1cccc(Cn2c(SCCN3CCCCC3)nc3c2c(=O)[nH]c(=O)n3C)c1
2. CN(C)S(=O)(=O)c1ccc(C(=O)Nc2ccc(F)cc2F)cc1
3. Cc1ccc(-c2nc(C#N)c(N3CCCCC3)o2)cc1
4. Cc1c(NC(=O)c2noc3c2CCc2ccccc2-3)c(=O)n(-c2ccccc2)n1C

output:
-2.89
1.08
-1.61
-0.3

input: Can you share its viability increase? I mean this molecule: O=C(Nc1cccnc1)Nc1ccccn1
output: -0.73
